# credit: patent US7053177B1

Target: bovine serum albumin (bovine) (UniProt P02769)
Sequence (P02769 25-607 limits assumed): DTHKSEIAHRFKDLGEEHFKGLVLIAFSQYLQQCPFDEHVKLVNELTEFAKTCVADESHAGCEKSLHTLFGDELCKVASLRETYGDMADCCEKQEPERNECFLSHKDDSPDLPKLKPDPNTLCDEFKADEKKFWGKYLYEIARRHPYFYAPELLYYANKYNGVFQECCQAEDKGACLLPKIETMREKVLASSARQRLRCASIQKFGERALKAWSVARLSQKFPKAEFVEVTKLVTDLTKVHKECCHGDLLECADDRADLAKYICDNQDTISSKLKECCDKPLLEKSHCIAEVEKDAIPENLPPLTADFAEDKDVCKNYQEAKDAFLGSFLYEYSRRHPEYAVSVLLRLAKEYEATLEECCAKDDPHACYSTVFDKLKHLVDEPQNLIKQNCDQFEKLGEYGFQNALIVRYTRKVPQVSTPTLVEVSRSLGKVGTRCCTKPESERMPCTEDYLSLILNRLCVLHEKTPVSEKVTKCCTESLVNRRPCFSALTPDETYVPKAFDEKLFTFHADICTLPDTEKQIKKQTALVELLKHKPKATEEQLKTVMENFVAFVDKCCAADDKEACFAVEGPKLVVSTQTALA
Test: phage ELISA on coated BSA
Ends that are not written are not given here.
Endpoint label: OD (OD 650 nm)
Response body: numeric value in OD 650 nm, unit text excluded.

Answered examples (8):
[[record]]
binder = "SRCTDNEQCPDTGTRSRSVSNARYFSSRLLKTHAPHRP (cysteine pairing not given here; also: displayed as N-terminal pIII fusion on M13 phage, M13 phage displaying this insert as N-terminal pIII fusion; whole phage in the ELISA; not shown: M13 phage particle / pIII display carrier (and vector flanks)) [phage PAX46]"
endpoint_label = "OD"
value_observed = 0.077

[[record]]
binder = "SPRSFWPVVSRHESFGISNYLGCGYRTCISGTMTKSSPIYPRHS (M13 phage displaying this insert as N-terminal pIII fusion; whole phage in the ELISA) [phage S21]"
endpoint_label = "OD"
value_observed = 0.092

[[record]]
binder = "RSGAYESPDGRGGRSYVGGGGGCGNIGRKHNLWGLRTASPACWD [phage S15]"
endpoint_label = "OD"
value_observed = 0.053

[[record]]
binder = "SQGSKQCMQYRTGRLTVGSEYGCGMNPARHATPAYPARLLPRYR [phage DCX11]"
endpoint_label = "OD"
value_observed = 0.071

[[record]]
binder = "RWGWERSPSDYDSDMDLGARRYATRTHRAPPRVLKAPLP (peptide, not shown: large carriers, also: displayed as N-terminal pIII fusion on M13 phage) [phage 5PAX7]"
endpoint_label = "OD"
value_observed = 0.037

[[record]]
binder = "SGGEVSSWGRVNDLCARVSWTGCGTARSARTDNKGFLPKHSSLR [phage SNi45]"
endpoint_label = "OD"
value_observed = 0.056

[[record]]
binder = "REFAERRLWGCDDLSWRLDAEGCGPTPSNRAVKHRKPRPRSPAL (cysteine pairing not given here; also: displayed as N-terminal pIII fusion on M13 phage, M13 phage displaying this insert as N-terminal pIII fusion; whole phage in the ELISA; also called H44; not shown: M13 pIII display protein and the vector-encoded flanking residues) [phage HAX40]"
endpoint_label = "OD"
value_observed = 0.065

[[record]]
binder = "SGRTTSEISGLWGWGDDRSGYGWGNTLRPNYIPYRQATNRHRYT [phage DCX26]"
endpoint_label = "OD"
value_observed = 0.213


For record SFQVYPDHGLERHALDGTGPLYAMPGRWIRARPQNRDRQ (also: displayed as N-terminal pIII fusion on M13 phage, M13 phage displaying this insert as N-terminal pIII fusion; whole phage in the ELISA; not shown: M13 phage particle / pIII display carrier (and vector flanks)) [phage PAX45] the listed OD is 0.081

For record SFLRFQSPRFEDYSRTISRLRNATNPSNVSDAHNNRALA (also: displayed as N-terminal pIII fusion on M13 phage, M13 phage displaying this insert as N-terminal pIII fusion; whole phage in the ELISA; not shown: M13 phage particle / pIII display carrier (and vector flanks)) [phage PAX18] the listed OD is 0.087

For record RPKNVADAYSSQDGAAAEETSHASNAARKSPKHKPLRRP (peptide, not shown: large carriers, also: displayed as N-terminal pIII fusion on M13 phage) [phage 5PAX3] the listed OD is 0.04

For record SSADAEKCAGSLLWWGRQNNSGCGSPTKKHLKHRNRSQTSSSSH (cysteine pairing not given here; also: displayed as N-terminal pIII fusion on M13 phage, M13 phage displaying this insert as N-terminal pIII fusion; whole phage in the ELISA; not shown: M13 pIII coat protein and phage particle (display carrier)) [phage P90] the listed OD is 0.107
